Source: paper PMC10397247

# System Under Test: T1, 4H797-AA
# T1 chain: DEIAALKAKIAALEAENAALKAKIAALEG
# Measurement Description: two-hybrid library CCmax;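 also: natural log of median RNA to DNA barcode read ratio; higher means stronger binding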
# Condition: mean of both orientations
Experimental Readout: interaction score

Examples with their reported interaction score follow.
[[record]]
binder = "DKNAALKAKIAALEAEIAALKAKNAALEG [4H3855-AA]"
experimental_readout = "interaction score"
measured_result = -1.29

[[record]]
binder = "DKNAALKAENAALEAKIAALKAEIAALEG [4H3753-AA]"
experimental_readout = "interaction score"
measured_result = -1.42

[[record]]
binder = "DKNAALEAEIAALEAKNAALKAEIAALKG [4H3130-AA]"
experimental_readout = "interaction score"
measured_result = -1.21


I: DKIAALKAEIAALKAENAALKAEIAALEG [4H2649-AA]
II: DEIAALKAEIAALEAKNAALKAEIAALKG [4H570-AA]
III: DENAALEAKIAALEAENAALKAKIAALKG [4H1310-AA]
IV: DENAALEAKNAALEAKIAALEAKIAALKG [4H1446-AA]
Would you mind ranking these binders by ascending interaction score? Put the labels in the requested order and list them out. IV, II, I, III
